- experimental system: UniProt:Q5JUK3
- test summary: Tl+ flux assay in HEK-293 cells stably expressing WT Slack
- Format: cell-based
- test context: running text and footnotes; WT Slack Tl+ flux
property label: Slack activity profile in words

Guide cases for Slack activity profile in words, answers given:
[[record]]
smiles_structure = "COc1ccc(Cl)cc1NC(=O)CN1CCN(S(=O)(=O)N2CCN(C(=O)N3CCCCC3)CC2)CC1"
reported_result = "weak activators"

[[record]]
smiles_structure = "CC1CCN(S(=O)(=O)N2CCN(CC(=O)Nc3cc(Cl)ccc3Cl)CC2)CC1"
reported_result = "not effective"

[[record]]
smiles_structure = "COc1ccc(Cl)cc1NC(=O)CN1CCN(S(=O)(=O)N2CCN(S(=O)(=O)N3CCC(F)(F)C3)CC2)CC1"
reported_result = "weak activators"

[[record]]
smiles_structure = "COc1ccc(Cl)cc1NC(=O)N1CC2(CCN(S(=O)(=O)N3CCC(C)CC3)CC2)C1"
reported_result = "weak activators"

[[record]]
smiles_structure = "COc1ccc(Cl)cc1NC(=O)CN1CCN(S(=O)(=O)N2CCN(C(=O)N3CCCCCC3)CC2)CC1"
reported_result = "weak activators"


Query: Please look up its Slack activity profile in words: Cc1ccc(Cl)cc1NC(=O)CN1CCN(S(=O)(=O)N2CCC(C)CC2)CC1
Reply: not effective

====

- experimental system: wild-type human (WT) Slack (Homo sapiens, UniProt Q5JUK3)
- Sequence (Q5JUK3 1-1235 isoform Q5JUK3-3): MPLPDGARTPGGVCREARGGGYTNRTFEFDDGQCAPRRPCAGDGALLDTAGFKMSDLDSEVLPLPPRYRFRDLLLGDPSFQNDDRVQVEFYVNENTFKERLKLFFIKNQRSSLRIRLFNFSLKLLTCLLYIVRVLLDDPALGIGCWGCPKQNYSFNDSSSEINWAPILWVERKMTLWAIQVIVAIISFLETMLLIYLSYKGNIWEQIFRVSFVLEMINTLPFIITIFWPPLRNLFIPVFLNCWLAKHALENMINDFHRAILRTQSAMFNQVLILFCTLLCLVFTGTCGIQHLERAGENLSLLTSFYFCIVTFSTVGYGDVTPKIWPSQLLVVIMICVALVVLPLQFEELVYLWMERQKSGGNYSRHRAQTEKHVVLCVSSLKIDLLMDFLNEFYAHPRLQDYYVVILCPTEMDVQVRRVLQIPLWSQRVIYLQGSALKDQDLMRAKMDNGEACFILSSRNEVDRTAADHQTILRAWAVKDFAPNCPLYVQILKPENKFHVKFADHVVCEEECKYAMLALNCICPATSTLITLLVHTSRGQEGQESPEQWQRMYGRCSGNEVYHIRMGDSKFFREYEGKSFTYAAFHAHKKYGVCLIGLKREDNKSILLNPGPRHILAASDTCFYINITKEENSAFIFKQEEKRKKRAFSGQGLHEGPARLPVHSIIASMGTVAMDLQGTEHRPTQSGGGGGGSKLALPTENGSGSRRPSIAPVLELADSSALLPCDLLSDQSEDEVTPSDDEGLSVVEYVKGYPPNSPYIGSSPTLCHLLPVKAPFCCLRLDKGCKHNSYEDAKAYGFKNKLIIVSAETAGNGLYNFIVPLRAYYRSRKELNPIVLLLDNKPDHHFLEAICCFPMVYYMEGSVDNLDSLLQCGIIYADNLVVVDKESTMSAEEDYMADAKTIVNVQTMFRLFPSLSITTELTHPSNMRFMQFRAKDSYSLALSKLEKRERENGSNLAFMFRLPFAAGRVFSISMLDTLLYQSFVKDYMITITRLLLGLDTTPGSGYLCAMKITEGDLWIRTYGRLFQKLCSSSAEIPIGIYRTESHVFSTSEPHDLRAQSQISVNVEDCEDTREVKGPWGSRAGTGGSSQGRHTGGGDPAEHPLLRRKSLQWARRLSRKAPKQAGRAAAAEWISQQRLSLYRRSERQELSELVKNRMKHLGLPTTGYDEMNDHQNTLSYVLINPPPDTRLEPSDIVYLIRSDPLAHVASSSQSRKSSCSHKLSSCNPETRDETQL
- test summary: Tl+ flux assay in HEK-293 cells stably expressing WT Slack
- Assay type: cell-based
- test context: running text and footnotes; WT Slack Tl+ flux
property label: Slack activity profile in words

[[record]]
smiles_structure = "Cc1ccccc1NC(=O)CN1CCN(S(=O)(=O)N2CCC(C)CC2)CC1"
reported_result = "mixed profile"

[[record]]
smiles_structure = "COc1ccc(Cl)cc1NC(=O)CN1CCN(S(=O)(=O)N2CCN(C(=O)N3CCC(C(C)C)CC3)CC2)CC1"
reported_result = "mixed profile"

[[record]]
smiles_structure = "CCCC1CCN(C(=O)N2CCN(S(=O)(=O)N3CCN(CC(=O)Nc4cc(Cl)ccc4OC)CC3)CC2)CC1"
reported_result = "weak inhibitor"

[[record]]
smiles_structure = "COc1ccc(Cl)cc1NC(=O)N1CC2(C1)CN(S(=O)(=O)N1CCC(C)CC1)C2"
reported_result = "weak inhibitor"


====

- experimental system: wild-type human (WT) Slack (Homo sapiens, UniProt Q5JUK3)
- test summary: Tl+ flux assay in HEK-293 cells stably expressing WT Slack
- Format: cell-based
- test context: running text and footnotes; WT Slack Tl+ flux
property label: Slack activity profile in words

[[record]]
compound = "CC1CCN(S(=O)(=O)N2CCN(CC(=O)Nc3ccccc3Cl)CC2)CC1 [Compound 15]"
reported_result = "mixed profile"

[[record]]
compound = "COc1cccc(NC(=O)CN2CCN(S(=O)(=O)N3CCC(C)CC3)CC2)c1 [Compound 22]"
reported_result = "mixed profile"

